System: MCF7
ASSAY_NAME: NCI tumour cell line growth inhibition, 48 h
Calls of active or inactive are those of the source. No stated cut-off is given here; in the data, active = GI50 up to about 1.1 µM and inactive = higher.
I would appreciate it if you answered using one of these outcomes: 1 = active, 0 = inactive

Example entries begin here.
INSERT INTO results (compound, assigned_class) VALUES
  ('CC(=O)OC[C@H]1CN(OC(C)=O)C[C@@H](n2cc(C)c(=O)[nH]c2=O)O1', 0),
  ('COC1/C=C/C(C)C(OC)CC(O)/C=C/C(C)C(C(C)C(OC)C(C)CCC(=O)C(C)C(C/C=C/N(C)C=O)OC)OC(=O)/C=C/C=C(\C)CC(OC)CC2=CC(=O)O[C@@H](C(C)C(OC)C1)[C@H]2O (some centres undefined)', 1),
  ('Cc1c(NC(=O)CCCl)c(=O)oc2c(C)c3occc(=O)c3cc12', 0),
  ('Nc1ccc([As](=O)(O)O)cc1', 0),
  ('COc1cc2nc(-c3cccs3)nc(Nc3cccc([N+](=O)[O-])c3)c2cc1OC', 0),
  ('COc1ccc(OC)c(C2Cc3cnc4nc(N)nc(N)c4c3C2)c1 (centres undefined)', 0),
  ('Cc1ccc(S(=O)(=O)N2CCSCCSCCSCCSCC2)cc1', 0),
  ('O=C1C=C/C(=N/c2ccccc2)c2ccccc21', 0);

# lookup: test call for CC1C[C@]2(C)C(NCCN)=Nc3ccccc3[C@@H]2N(C)c2ccccc21 (some centres undefined)
0
